# assayed_system: hK2 (Homo sapiens)
# Construct: made in house
# Sequence (P20151 25-261): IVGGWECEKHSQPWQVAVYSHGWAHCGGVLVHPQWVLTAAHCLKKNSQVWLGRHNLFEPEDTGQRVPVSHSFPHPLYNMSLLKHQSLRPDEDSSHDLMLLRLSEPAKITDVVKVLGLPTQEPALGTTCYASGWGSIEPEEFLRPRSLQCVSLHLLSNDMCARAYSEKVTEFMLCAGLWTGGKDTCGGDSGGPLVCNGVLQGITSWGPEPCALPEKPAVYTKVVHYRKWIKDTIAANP
# assay: Effect of the peptides on the enzyme activity of hK2 (chromogenic substrate S-2302)
# Assay type: biochemical
# experimental_context: incubation of hK2 with synthetic peptide (FIG. 2)
No end group written: not given here.
observed_property: effect on the enzyme activity of hK2

Completed entries (count: 4):
>>> result("CFRQGCWVIT [HK2p04]")
"did not show any effect"
>>> result("CYRMPTCMQRD [HK2p06]")
"did not show any effect"
>>> result("PARRPFPVTA [HK2p03]")
"significant reduction"
>>> result("SRFKVWWAAG-OH [HK2p01, SRFKVWWAAG]")
"significant reduction"

Challenge: Which effect on the enzyme activity of hK2 value is on record for AARRPFPAPS [HK2p02] ?
Response given: significant reduction
